Quick reference for SPOT peptide array binding signal intensity among some binders
TARGET UNDER TEST: SpPex13
TEST: SPOT peptide array binding signal intensity (averaged, normalized) (arbitrary units (background-subtracted, floor 0; scale differs between SH3 domains)); higher = stronger binding of the SH3 domain to the peptide
Lab note: record the figure alone, no unit after it.

Example cases with answers are listed next.
{"columns": ["BINDER", "VALUE REPORTED"],
 "data": [
  ["FLIKFTPKFPQSIDH", 309],
  ["NLKKRPPTAPQRKIS", 6],
  ["RRRRRPHRIERPLSN", 10],
  ["MKRSRPSRSIPYTTP", 16],
  ["IKKRNKIRLPSGSPE", 6]
]}

Kindly note the recorded SPOT peptide array binding signal intensity for `RSRRSSFAYPQQVAI` , which is 17

Kindly note the recorded SPOT peptide array binding signal intensity for `ERPKRRAPPPVPKKP` , which is 15

Kindly note the recorded SPOT peptide array binding signal intensity for `AERNYAPRLPRRETS` , which is 3.5

Kindly note the recorded SPOT peptide array binding signal intensity for `TTNRGPPPLPPRANV` , which is 7

Kindly note the recorded SPOT peptide array binding signal intensity for `SGVRLPAPPPPPRRG` , which is 35
